# Experimental System: GST-Chk1 enzyme (Homo sapiens)
# Sequence (O14757 whole entry): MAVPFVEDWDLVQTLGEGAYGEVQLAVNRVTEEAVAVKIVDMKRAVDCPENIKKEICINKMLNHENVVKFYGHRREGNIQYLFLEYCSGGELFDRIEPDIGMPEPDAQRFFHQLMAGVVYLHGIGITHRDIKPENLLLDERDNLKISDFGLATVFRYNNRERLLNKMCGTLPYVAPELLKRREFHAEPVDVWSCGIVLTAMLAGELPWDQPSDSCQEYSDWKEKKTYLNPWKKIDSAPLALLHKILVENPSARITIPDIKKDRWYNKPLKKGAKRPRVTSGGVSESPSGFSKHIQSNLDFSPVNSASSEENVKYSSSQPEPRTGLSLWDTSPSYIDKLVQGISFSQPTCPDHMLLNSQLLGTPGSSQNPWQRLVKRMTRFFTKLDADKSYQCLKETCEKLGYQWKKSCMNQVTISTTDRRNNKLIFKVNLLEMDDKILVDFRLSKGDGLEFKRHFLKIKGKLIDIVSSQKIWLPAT
# Experimental Details: Chk1 kinase inhibition assay (33P phosphorylation of Chktide, filter plate)
# Type: biochemical
# Condition Set: 0.01 mM ATP, 11 nM GST-Chk1, 40 minutes at 30° C.; read-out: Chk1 IC50
# Protocol: The assay mixture containing the inhibitor and Chk1 enzyme was mixed together in a microtiter plate in a final volume of 50 μl and incubated for 40 minutes at 30° C. The reaction was stopped by adding 50 μl of 50 mM phosphoric acid. […] The filtration plate was dried for 10 min at 65° C., scintillant added and phosphorylated peptide quantified in a scintillation counter (Trilux, PerkinElmer)
Quantity: IC50 (µM)

1: CC(C)c1cnn2c(Nc3ccc(S(=O)(=O)N(C)CCO)cc3)cc(OCCN(C)C)nc12
2: CN(C)S(=O)(=O)c1ccc(Nc2cc(N[C@H]3CC[C@H](N)CC3)nc3c(C4CC4)cnn23)cc1
3: CC(C)c1cnn2c(Nc3ccc(S(=O)(=O)N(C)C)cc3)cc(O[C@H]3CC[C@H](N)CC3)nc12
4: CN(C)S(=O)(=O)c1ccc(Nc2cc(N[C@H]3CC[C@H](N)CC3)nc3c(C4CCCC4)cnn23)cc1
5: CC(C)c1cnn2c(Nc3ccc(S(=O)(=O)N(C)C)cc3)cc(NC3CCC(N)C3)nc12 (stereo not drawn)
// ascending sort on recorded IC50 List the labels according to the requested ordering.
4, 2, 5, 3, 1
(4: 0.72 µM, 2: 1.03 µM, 5: 2 µM, 3: 3.45 µM, 1: 80.8 µM)

====

# Experimental System: CDK-2 enzyme, complexed with cyclin A (Homo sapiens, UniProt P24941)
# Experimental Details: CDK2 enzyme inhibition assay (33P phosphorylation of peptide […], filter plate)
# Condition Set: CDK-2/cyclin A, 0.1 mM ATP, 40 min at 30° C.
pIC50: −log10 of the molar value.
Quantity: pIC50

- Compound: "CC(C)c1cnn2c(Nc3ccc(S(=O)(=O)NCC4CCCO4)cc3)cc(Cl)nc12 (stereo not drawn)"
  Value Measured: 6.72
- Compound: "CC(C)c1cnn2c(NC3CCN(C(=O)OC(C)(C)C)CC3)cc(Cl)nc12"
  Value Measured: 5.46
- Compound: "CC(C)c1cnn2c(Nc3ccc(S(=O)(=O)N(C)C)cc3)cc(N[C@H]3CC[C@H](NS(C)(=O)=O)CC3)nc12"
  Value Measured: 7.14
- Compound: "CC(C)c1cnn2c(Nc3ccc(S(=O)(=O)N(C)C)cc3)cc(C(=O)NCCN3CCOCC3)nc12"
  Value Measured: 5.03
- Compound: "CCN[C@H]1CC[C@H](Nc2cc(Nc3ccc(S(=O)(=O)N(C)C)cc3)n3ncc(C(C)C)c3n2)CC1"
  Value Measured: 7.01
- Compound: "CC(C)c1cnn2c(Nc3ccc(S(=O)(=O)N(C)C)cc3)cc(OC3CCCC3)nc12"
  Value Measured: 5.88
- Compound: "CC(C)c1cnn2c(Nc3ccc(S(=O)(=O)N(C)C)cc3)cc(OC3CCCN(C)C3)nc12 (stereo not drawn)"
  Value Measured: 6.58

I: CC(C)c1cnn2c(Nc3ccc(S(=O)(=O)N(C)C)cc3)cc(NC3CCCCC3)nc12
II: CC(C)c1cnn2c(Nc3ccc(S(=O)(=O)N(C)C)cc3)cc(N[C@H]3CC[C@H](N(C)C)CC3)nc12
Min pIC50? I | II Lab note: record the label of whichever item you select.
II
(II: 6.09, I: 6.45)
